The reported measurements were obtained from the RNAGym collection of RNA variant scans (doi:10.7554/elife.90254).

B1: LINE1-full (parent)
chain: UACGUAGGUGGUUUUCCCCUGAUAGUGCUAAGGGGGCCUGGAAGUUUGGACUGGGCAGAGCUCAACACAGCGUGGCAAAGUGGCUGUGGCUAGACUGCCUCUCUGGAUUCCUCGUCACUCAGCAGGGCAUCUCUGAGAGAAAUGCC

# Variants of: B1
# Experiment Description: self-cleavage, relative activity (ratio to wild type); higher = more cleavage; in vitro, sequencing; the parent is a self-cleaving ribozyme
Property Name: self-cleavage
Write the value as a bare number.

Task: For the variant U14A A22U , what self-cleavage is on record?
Result: 1.6

Task: And G41A U85G ?
Result: 0.09

Task: Try the variant U62A G144A
Result: 0.05

Task: Now this one: A121C A141G
Result: 1.99

Task: Similarly, A30U U115C ?
Result: 1.16

Task: And what about the variant C28A U96C ?
Result: 0.17

Task: Same for U9G G74A
Result: 0.88

Task: Would you mind doing A67G U100A as well?
Result: 0.06

Task: Also need U102C A140U , thanks.
Result: 1.48

Task: Then what about the variant A50U A77G ?
Result: 0.43

Task: And what about the variant U62A U115C ?
Result: 0.04

Task: Next up: G4A A77G
Result: 1.68

Task: Note, next up: C19A A77G
Result: 2.71

Task: And U1C C56U ?
Result: 0.07

Task: Another variant: U13A U119A
Result: 1.06

Task: Another variant: A124U A138U
Result: 1.37

Task: And then U45C C63U , what is it?
Result: 0.18

Task: Also, G7A U132C please.
Result: 1.2

Task: Same again, this time with G27A A79U
Result: 1.36

Task: Now try U132A G139A .
Result: 1.33

Task: Now try C3U G60U .
Result: 0.07

Task: Request: U13G A57U
Result: 0.13
